Test: Pharmacokinetics in ICR mice after intravenous and intragastric administration
Format: in vivo
Conditions: male, ICR, mouse, plasma, po, 5 mg/kg, ICR mice, PO 5 mg/kg, individual animals 401-403; read-out: MRT(0-∞)
Property: MRT inf; scope: individual compounds
Numbers only; they are read as h.

Take a look at these entries with their results.
* COc1cc(OC(C)C)ncc1-c1nc2c(n1C(C)C)[C@@]1(C(=O)Nc3cc(Cl)ccc31)N(c1cc(Cl)cnc1C)C2=O [Example S-137] | 2.7
* COc1nc(C2CC2)ncc1-c1nc2c(n1C(C)C)[C@@]1(C(=O)Nc3cc(Cl)ccc31)N(c1cc(Cl)cnc1C)C2=O [Example S-159] | 1.95

Looking for the measured MRT inf of COc1nc(N(C)C)ncc1-c1nc2c(n1C(C)C)[C@@]1(C(=O)Nc3cc(Cl)ccc31)N(c1cc(Cl)cnc1C)C2=O [Example S-135] , can you help? 3.12

---

Test: Pharmacokinetics in ICR mice after intravenous and intragastric administration
Assay type: in vivo
Conditions: male, ICR, mouse, plasma, iv, 2 mg/kg, ICR mice, IV 2 mg/kg, individual animals 301-303; read-out: MRT(0-t)
Recorded MRT last values for a group of compounds are listed next.
# unit: h | format: bare number

Worked examples, 3 compounds total:
• COc1cc(OC(C)C)ncc1-c1nc2c(n1C(C)C)[C@@]1(C(=O)Nc3cc(Cl)ccc31)N(c1cc(Cl)cnc1C)C2=O = 1.51
• CCOc1ncc(-c2nc3c(n2C(C)C)[C@@]2(C(=O)Nc4cc(Cl)ccc42)N(c2cc(Cl)cnc2C)C3=O)c(OC)n1 = 1.17
• COc1nc(N(C)C)ncc1-c1nc2c(n1C(C)C)[C@@]1(C(=O)Nc3cc(Cl)ccc31)N(c1cc(Cl)cnc1C)C2=O = 1.6

Then there is this compound:
Quick check: MRT last of COc1nc(C2CC2)ncc1-c1nc2c(n1C(C)C)[C@@]1(C(=O)Nc3cc(Cl)ccc31)N(c1cc(Cl)cnc1C)C2=O ? 1.23

---

As shown below, each of these molecules has a reported MRT last value.
Test: Pharmacokinetics in ICR mice after intravenous and intragastric administration
Type: in vivo
Details: male, ICR, mouse, plasma, iv, 2 mg/kg, IV 2 mg/kg, ICR mice, individual animal; read-out: MRT(0-t)
Protocol: Experimental Example 3 Determination of the Pharmacokinetics of the Mdm2 Inhibitors of the Present Invention in Mice […] The collected plasma was stored at −80° C. before analysis. The plasma sample was analyzed by LC-MS/MS, and the sample was pretreated by protein precipitation method. […] The lowest quantification limit was 1 ng/mL. […]
Express your answer in h, writing the number without its unit.

Please review the following examples before continuing.
- COc1cc(OC)c(-c2nc3c(n2C(C)C)[C@@]2(C(=O)Nc4cc(Cl)ccc42)N(c2cc(Cl)ccc2C)C3=O)cn1: 1.4
- COc1ncc(-c2nc3c(n2C(C)C)[C@@]2(C(=O)Nc4cc(Cl)ccc42)N(c2cccc(Cl)c2)C3=O)c(OC)n1: 1.31
- COc1cc(N(C)C)ccc1-c1nc2c(n1C(C)C)[C@@]1(C(=O)Nc3cc(Cl)ccc31)N(c1cc(Cl)ccc1C)C2=O: 1.78
- COc1ncc(-c2nc3c(n2C(C)C)[C@@]2(C(=O)Nc4cc(Cl)ccc42)N(c2cc(Cl)ccc2C)C3=O)c(OC)n1: 1.47
- COc1ccc(-c2nc3c(n2C(C)C)[C@@]2(C(=O)Nc4cc(Cl)ccc42)N(c2cc(Cl)ccc2C)C3=O)c(OC)c1: 1.58

Continue with the molecule presented below.
If you can, please state the reported MRT last value of COc1ncc(-c2nc3c(n2C(C)C)[C@H](c2ccc(Cl)cc2)N(c2cc(Cl)cn(C)c2=O)C3=O)c(OC)n1 [HDM201, reference compound] . 0.59

---

Assay: Pharmacokinetics in ICR mice after intravenous and intragastric administration
Format: in vivo
Conditions: male, ICR, mouse, plasma, po, 5 mg/kg, ICR mice, PO 5 mg/kg, mean of 3 animals; read-out: Cmax
Entries annotated with measured Cmax
Unit ng/mL implied. Number only.

Worked examples follow.
• COc1nc(C2CC2)ncc1-c1nc2c(n1C(C)C)[C@@]1(C(=O)Nc3cc(Cl)ccc31)N(c1cc(Cl)ccc1C)C2=O = 4820
• COc1cc(OC(C)C)ncc1-c1nc2c(n1C(C)C)[C@@]1(C(=O)Nc3cc(Cl)ccc31)N(c1cc(Cl)cnc1C)C2=O = 6070
• CCOc1cc(OC)c(-c2nc3c(n2C(C)C)[C@@]2(C(=O)Nc4cc(Cl)ccc42)N(c2cc(Cl)cnc2C)C3=O)cn1 = 3850

Pending compound:
So what's the measured Cmax for this one? COc1cc(C(F)(F)F)ncc1-c1nc2c(n1C(C)C)[C@@]1(C(=O)Nc3cc(Cl)ccc31)N(c1cc(Cl)ccc1C)C2=O 1390

---

Target: UniProt:Q00987
testReadout: pIC50
Conceptually, pIC50 converts a concentration in mol/L into minus its log10.

# annotated cases, reported pIC50 shown
- COc1cc(C2CC2)ncc1-c1nc2c(n1C(C)C)[C@]1(C(=O)Nc3cc(Cl)ccc31)N(c1cccc(Cl)c1)C2=O: 6.32
- CCc1ccc(Cl)cc1N1C(=O)c2nc(-c3cnc(OC)nc3OC)n(C(C)C)c2[C@@]12C(=O)Nc1cc(Cl)ccc12: 8.79

Lookup: pIC50 / UniProt:Q00987 / COc1ccc(-c2nc3c(n2C(C)C)[C@@]2(C(=O)Nc4cc(Cl)ccc42)N(c2cc(Cl)cn(C)c2=O)C3=O)c(OC)c1 8.41

---

Known IC50 of a selection of molecules
System: human osteosarcoma cell line SJSA-1
Experiment: Inhibition of proliferation of human osteosarcoma cell line SJSA-1 (DAPI staining, In Cell Analyzer)
Conditions: Homo sapiens, SJSA-1, 72 h, read-out: IC50 (nM), inhibitory activity on proliferation of human osteosarcoma cell line SJSA-1, SJSA-1, incubated 72 h
Put down the number, then write its unit next to it.

* COc1cc(N)ccc1-c1nc2c(n1C(C)C)[C@@]1(C(=O)Nc3cc(Cl)ccc31)N(c1cc(Cl)ccc1F)C2=O | 39.6 nM
* COc1cc(OC)c(-c2nc3c(n2C(C)C)[C@@]2(C(=O)Nc4cc(Cl)ccc42)N(c2cc(Cl)cnc2C)C3=O)cn1 | 46.3 nM
* COc1nc(OCC(F)F)ncc1-c1nc2c(n1C(C)C)[C@]1(C(=O)Nc3cc(Cl)ccc31)N(c1cc(Cl)ccc1C)C2=O | 5740 nM
* COc1cc(C#N)ccc1-c1nc2c(n1C(C)C)[C@@]1(C(=O)Nc3cc(Cl)ccc31)N(c1cccc(Cl)c1)C2=O | 145 nM
* COc1nc(OCCF)ncc1-c1nc2c(n1C(C)C)[C@@]1(C(=O)Nc3cc(Cl)ccc31)N(c1cccc(Cl)c1)C2=O | 379 nM

In the following, a different molecule is considered.
Look at this molecule and give its reported IC50. CCOc1ncc(-c2nc3c(n2C(C)C)[C@@]2(C(=O)Nc4cc(Cl)ccc42)N(c2cc(F)cc(Cl)c2)C3=O)c(OC)n1 56.8 nM

---

Assay: Pharmacokinetics in ICR mice after intravenous and intragastric administration
Assay type: in vivo
Conditions: male, ICR, mouse, plasma, iv, 2 mg/kg, ICR mice, IV 2 mg/kg, mean of 3 animals; read-out: MRT(0-∞)
testReadout: MRT inf (h)
Return type: number; implicit unit h.

Here's what some known entries look like.
- COc1nc(N(C)C)ncc1-c1nc2c(n1C(C)C)[C@@]1(C(=O)Nc3cc(Cl)ccc31)N(c1cc(Cl)cnc1C)C2=O [Example S-135]: 2.29
- CCOc1cc(OC)c(-c2nc3c(n2C(C)C)[C@@]2(C(=O)Nc4cc(Cl)ccc42)N(c2cc(Cl)cnc2C)C3=O)cn1 [Example S-96]: 1.66
- COc1ccc(-c2nc3c(n2C(C)C)[C@@]2(C(=O)Nc4cc(Cl)ccc42)N(c2cc(Cl)cnc2C)C3=O)c(OC)c1 [Example S-61]: 1.27
- COc1nc(C2CC2)ncc1-c1nc2c(n1C(C)C)[C@@]1(C(=O)Nc3cc(Cl)ccc31)N(c1cc(Cl)ccc1C)C2=O [Example S-121]: 6.01

Entry CCOc1cc(OC)c(-c2nc3c(n2C(C)C)[C@@]2(C(=O)Nc4cc(Cl)ccc42)N(c2cc(Cl)ccc2C)C3=O)cn1 [Example S-72] has what MRT inf? 2.16

---

Assay system MDM2 (Homo sapiens, UniProt Q00987); read-out recorded as IC50.
I only need the number, in nM, no unit after it.

Reference set (6 entries):
* COc1ncc(-c2nc3c(n2C2CC2)[C@@]2(C(=O)Nc4cc(Cl)ccc42)N(c2cc(Cl)ccc2C)C3=O)c(OC)n1 [Example S-28] | 54.3
* CCN(C)c1ccc(-c2nc3c(n2C(C)C)[C@]2(C(=O)Nc4cc(Cl)ccc42)N(c2cc(Cl)ccc2C)C3=O)c(OC)c1 [Example R-99] | 115
* COc1cc(OC)c(-c2nc3c(n2C(C)C)[C@@]2(C(=O)Nc4cc(Cl)ccc42)N(c2cc(F)cc(Cl)c2)C3=O)cn1 [Example S-175] | 1.96
* COc1cc(OC)c(-c2nc3c(n2C(C)C)[C@@]2(C(=O)Nc4cc(Cl)ccc42)N(c2cccc(Cl)c2)C3=O)cn1 [Example S-115] | 1.3
* COc1cc(CN(C)C)ccc1-c1nc2c(n1C(C)C)[C@]1(C(=O)Nc3cc(Cl)ccc31)N(c1cc(Cl)ccc1C)C2=O [Example R-47] | 210
* Cc1ccc(Cl)cc1N1C(=O)c2nc(-c3ccccc3OC(F)(F)F)n(C(C)C)c2[C@@]12C(=O)Nc1cc(Cl)ccc12 [Example S-31] | 60.1

Give MDM2 (Homo sapiens, UniProt Q00987) IC50 for COc1ncc(-c2nc3c(n2C(C)C)[C@@]2(C(=O)Nc4cc(Cl)ccc42)N(c2cccc(Cl)c2)C3=O)c(OC)n1 [Example S-1] 2.21

Param readout= IC50; system= MDM2 (Homo sapiens, UniProt Q00987); entry= CCN(C)c1ncc(-c2nc3c(n2C(C)C)[C@@]2(C(=O)Nc4cc(Cl)ccc42)N(c2cc(Cl)ccc2C)C3=O)c(OC)n1 [Example S-119] ; returns value. 2.39

Recall the recorded IC50 for COc1cc(C(C)C)ccc1-c1nc2c(n1C(C)C)[C@]1(C(=O)Nc3cc(Cl)ccc31)N(c1cc(Cl)cnc1C)C2=O [Example R-89] with MDM2 (Homo sapiens, UniProt Q00987) and state it. 569

Hi! What's the reported IC50 for COc1cc(N(C)C)ncc1-c1nc2c(n1C(C)C)[C@@]1(C(=O)Nc3cc(Cl)ccc31)N(c1cccc(Cl)c1)C2=O [Example S-113] on MDM2 (Homo sapiens, UniProt Q00987)? 1.25

Enter reported IC50 observed with MDM2 (Homo sapiens, UniProt Q00987) for CNC(=O)c1ccc(-c2nc3c(n2C(C)C)[C@@]2(C(=O)Nc4cc(Cl)ccc42)N(c2cc(Cl)ccc2C)C3=O)c(OC)c1 [Example S-54] 2.25

Request: IC50, test system MDM2 (Homo sapiens, UniProt Q00987), entry COc1nc(N(C)C)ccc1-c1nc2c(n1C(C)C)[C@]1(C(=O)Nc3cc(Cl)ccc31)N(c1cc(Cl)ccc1C)C2=O [Example R-157] 370

Notebook entry, MDM2 (Homo sapiens, UniProt Q00987) assay: IC50 of CNC(=O)c1ccc(OC)c(-c2nc3c(n2C(C)C)[C@@]2(C(=O)Nc4cc(Cl)ccc42)N(c2cc(Cl)ccc2C)C3=O)c1 [Example S-21] = ? 1.34
